Measurement Protocol: Cytotoxicity assay in MT-4 cells
Assay type: cell-based
Applied Conditions: human; uninfected MT-4 cells, 5 days incubation, Cell Titer Glo
Measured Metric: log10 CC50 at 5 days (log10 of the value in µM)
# values: log10(CC50 at 5 days), units µM

# input Which log10 CC50 at 5 days reading was recorded for the compound O=C(NCc1c(F)cc(F)cc1F)c1c2n3c(c(O)c1=O)C(=O)N1CCCC[C@@]3(C1)[C@H](O)[C@H]2O (single isomer, unassigned) ?
# output 1.70

# input How about this compound: O=C(NCc1c(F)cc(F)cc1F)c1c2n3c(c(O)c1=O)C(=O)N1CCCC[C@]3(CC2)C1
# output 0.79

# input How about this compound: O=C(NCc1ccc(F)c(Cl)c1F)c1c2n3c(c(O)c1=O)C(=O)N1CCCC[C@@]3(C[C@H]2O)C1 (single isomer, unassigned)
# output 0.36

# input How about this compound: O=C(NCc1ccc(F)cc1F)c1c2n3c(c(O)c1=O)C(=O)N1CCCC[C@@]3(C[C@@H]2O)C1 (single isomer, unassigned)
# output 0.66

# input How about this compound: O=C(NCc1c(F)cc(F)cc1F)c1c2n3c(c(O)c1=O)C(=O)N1CCCC[C@]3(C1)[C@@H](O)[C@@H]2O (single isomer, unassigned)
# output 1.70

# input How about this compound: CO[C@@H]1c2c(C(=O)NCc3c(F)cc(F)cc3F)c(=O)c(O)c3n2[C@@]2(CCCCN(C2)C3=O)[C@H]1OC (single isomer, unassigned)
# output 1.00

====

Would you kindly list CC50 at 5 days for each of these molecules?
Measurement Protocol: Cytotoxicity assay in MT-4 cells
Assay type: cell-based
Applied Conditions: human; uninfected MT-4 cells, 5 days incubation, Cell Titer Glo
// return numeric value only (unit: µM, not printed)

# input Which CC50 at 5 days reading was recorded for the molecule CO[C@H]1C=C[C@H](C)N2C[C@]13CC(O)c1c(C(=O)NCc4ccc(F)cc4F)c(=O)c(O)c(n13)C2=O (stereo partly drawn) [Compound 19-3] ?
# output 6.95

# input How about this molecule: C[C@@]1(O)C[C@]23CCCCN(C2)C(=O)c2c(O)c(=O)c(C(=O)NCc4c(F)cc(F)cc4F)c1n23 [Compound 17]
# output 3.17

# input How about this molecule: O=C(NCc1c(F)cc(F)cc1F)c1c2n3c(c(O)c1=O)C(=O)N1CCCC[C@]3(C[C@@H]2F)C1 (single isomer, unassigned) [Compound 8-1]
# output 7.38

# input How about this molecule: O=C(NCc1c(F)cc(F)cc1F)c1c2n3c(c(O)c1=O)C(=O)N1CCCC[C@@]3(C[C@@H]2O)C1 (single isomer, unassigned) [Compound 9-4]
# output 6.4

# input How about this molecule: CO[C@H]1CC[C@H](C)N2C[C@]13CCc1c(C(=O)NCc4c(F)cc(F)cc4F)c(=O)c(O)c(n13)C2=O [Compound 23-2]
# output 14.1

# input How about this molecule: O=C(NCc1c(F)cc(F)cc1F)c1c2n3c(c(O)c1=O)C(=O)N1CCCC[C@@]3(C[C@H]2O)C1 (single isomer, unassigned) [Compound 9-2]
# output 5.17

# input How about this molecule: O=C(NCc1c(F)cc(F)cc1F)c1c2n3c(c(O)c1=O)C(=O)N1CCCC[C@@]3(CC2CO)C1 (stereo partly drawn) [Compound 18]
# output 25.2

# input How about this molecule: CO[C@@H]1C[C@@]23CCCCN(C2)C(=O)c2c(O)c(=O)c(C(=O)NCc4c(F)cc(F)cc4F)c1n23 (single isomer, unassigned) [Compound 12-1]
# output 9.69

# input How about this molecule: C[C@]1(O)C[C@@]23CCCCN(C2)C(=O)c2c(O)c(=O)c(C(=O)NCc4c(F)cc(F)cc4F)c1n23 (single isomer, unassigned) [Compound 15]
# output 3.73

# input How about this molecule: C[C@H]1C=CC[C@]23C[C@H](O)c4c(C(=O)NCc5c(F)cc(F)cc5F)c(=O)c(O)c(n42)C(=O)N1C3 (single isomer, unassigned) [Compound 21-2]
# output 5.37

# input How about this molecule: O=C(NCc1c(F)cc(F)cc1F)c1c2n3c(c(O)c1=O)C(=O)N1CCCC[C@]3(C[C@@H]2O)C1 (single isomer, unassigned) [Compound 9-3]
# output 6.31

# input How about this molecule: CO[C@H]1C[C@]23CCCCN(C2)C(=O)c2c(O)c(=O)c(C(=O)NCc4c(F)cc(F)cc4F)c1n23 (single isomer, unassigned) [Compound 12-2]
# output 11.1
